Tested on: HL-60(TB) leukemia
assay: NCI-60 one-dose screen, 48 h
test settings: 10 µM unless noted
About 83,000 compounds went through this panel and 20% of them were active in at least one assay; those are over-represented in the sample as a whole. Calls of active or inactive are those of the source. How the source made its calls: active means growth percent below 10; inactive means the rest.
Labels: class 1 (active), class 0 (inactive)

compound=COc1cccc(-c2nn(C)c3sc(C(=O)NCCN4CCN(c5ccccc5F)CC4)cc23)c1 assigned_category="class 1"
compound=CNC(=O)c1cc(Oc2ccc3c(c2)sc2nc(-c4ccc(NC(=O)Nc5ccc(Cl)c(C(F)(F)F)c5)cc4)cn23)ccn1 assigned_category="class 0"
compound=O=C(NCc1ccccc1O)c1cccc2ccccc12 assigned_category="class 0"
compound="NC(=S)N/N=C(/CCN1CCCC1)CC(C1=C(O)C2=CCCCC2OC1=O)c1ccccc1 (stereo not given)" assigned_category="class 0"
compound=C=CCn1c(SCC(=O)Nc2ccc(C(=O)/C=C/c3cc(OC)c(OC)c(OC)c3)cc2)nnc1-c1cc(-c2ccc(S(N)(=O)=O)cc2)nc2ccccc12 assigned_category="class 0"
compound=COc1cc2nn(-c3ccccc3N)nc2cc1OC assigned_category="class 0"
compound=CCOC(OCC)c1cnc2nc(NC(C)=O)[nH]c(=O)c2n1 assigned_category="class 0"
compound="O=C(CC1(O)C(=O)Nc2ccc(Br)cc21)c1ccc(Cl)cc1 (stereo not given)" assigned_category="class 0"
compound="COc1ccc(C2=NN(/C=C3\\SC(=O)NC3=Nc3ccc(F)cc3)C(c3ccc(F)cc3)C2)cc1 (stereo not given)" assigned_category="class 0"
compound=Cc1c2cnccc2c(C)c2c1c1cc(O)ccc1n2C(C)C assigned_category="class 1"
